- System: 3',5'-cyclic-AMP phosphodiesterase 4B (Homo sapiens) (UniProt Q07343)
- Sequence (Q07343 whole entry, looked up): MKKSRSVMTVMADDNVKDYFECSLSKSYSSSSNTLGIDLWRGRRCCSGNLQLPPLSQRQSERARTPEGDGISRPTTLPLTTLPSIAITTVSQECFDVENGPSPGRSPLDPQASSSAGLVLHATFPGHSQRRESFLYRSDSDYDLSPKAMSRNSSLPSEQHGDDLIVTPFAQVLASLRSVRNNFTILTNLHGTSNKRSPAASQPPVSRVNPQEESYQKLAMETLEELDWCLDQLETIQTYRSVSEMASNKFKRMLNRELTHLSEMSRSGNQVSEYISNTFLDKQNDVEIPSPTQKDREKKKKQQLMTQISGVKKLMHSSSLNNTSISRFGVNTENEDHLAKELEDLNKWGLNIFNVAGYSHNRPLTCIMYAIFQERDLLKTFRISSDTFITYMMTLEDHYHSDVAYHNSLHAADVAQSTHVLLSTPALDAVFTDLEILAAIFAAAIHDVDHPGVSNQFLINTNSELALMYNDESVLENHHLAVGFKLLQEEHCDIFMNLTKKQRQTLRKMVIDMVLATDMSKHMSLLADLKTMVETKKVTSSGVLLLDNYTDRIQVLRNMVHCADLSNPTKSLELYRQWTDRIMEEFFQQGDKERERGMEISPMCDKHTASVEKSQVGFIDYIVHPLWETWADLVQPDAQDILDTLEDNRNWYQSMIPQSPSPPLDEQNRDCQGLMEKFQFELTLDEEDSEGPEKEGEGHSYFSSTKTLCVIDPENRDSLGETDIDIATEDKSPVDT
- Method Notes: qHTS Assay for Inhibitors of PDE-IV (AID 607); further: % of control where 0% means no effect
- Experimental Conditions: HEK293 ACTOne CNG channel cells, membrane potential fluorescence; series mostly up to 22.9 µM
- Description: NIH Chemical Genomics Center [NCGC] NIH Molecular Libraries Screening Centers Network [MLSCN] […] Here we report the development of a cell-based screening assay for cAMP phosphodiesterase (PDE) inhibitors. […] The influx of cations through the CNG channel can be quantified using membrane potential (MP) dyes. […] The activity of the CNG channel was measured by BD ACTOneTM membrane potential dye kit (BD Biosciences). […]
Records with an inconclusive call do not appear. Active and inactive are the calls of the source. The call rests on the fitted dose curve; in most records, active means well fitted activation curve with a large enough effect in the main read-out, with a control signal flat (not every such curve was filed as active); inconclusive means small, poorly fitted or top-dose-only effect, or effect the other way, or a change in a side signal; inactive means flat fitted curve, though single readings scatter.
Observable: outcome

>>> experimental_result("C[N+]1(CCCCC[N+]2(C)CCCC2)CCCC1")
"inactive"
>>> experimental_result("CCCCOc1ccc(OCCCN2CCOCC2)cc1")
"inactive"
>>> experimental_result("CCN(CC)C(=O)N1CCN(C)CC1")
"inactive"
>>> experimental_result("CC(C)(C(=O)c1cccnc1)c1cccnc1")
"inactive"
>>> experimental_result("Cc1cc(N)c2cc(NC(=O)Nc3ccc4nc(C)cc(N)c4c3)ccc2n1")
"inactive"
>>> experimental_result("CN1[C@@H]2CC[C@H]1CC(OC(=O)c1c[nH]c3ccccc13)C2 (some centres not stated)")
"inactive"
>>> experimental_result("C1CCc2nnnn2CC1")
"inactive"

====

- Test system: CP262
- Method Notes: qHTS profiling for inhibitors of Plasmodium falciparum proliferation (AID 504749); further: nearly all actives have a fitted effect of over 60% in size; further: potency means the concentration at half of the fitted maximal effect
- Experimental Conditions: P. falciparum in erythrocytes, SYBR Green DNA, 72 h; series mostly up to 28.7 µM
- Experimental: NIH National Institute of Allergy and Infectious Diseases [NIAID] NIH Chemical Genomics Center [NCGC] […] Because mature erythrocytes lack DNA, only Plasmodium-derived DNA is detected. NCGC Assay Protocol Summary: The SYBR Green viability assay was adapted from a method described previously (Plouffe et al., 2008). […] The following morning, fluorescence intensity at 485(14) nm excitation and 535(25) nm emission wavelengths was measured on an EnVision (Perkin Elmer) plate reader. […]
Results filed as inconclusive are left out. The source made the active and inactive calls. Calls follow the shape of the dose curve; as a rule, active = well fitted inhibition curve with a large enough effect; inconclusive = small, poorly fitted or top-dose-only effect; inactive = flat fitted curve, though single readings scatter.
Observable: Potency

>>> experimental_result("O=c1c(-c2ccccc2)c1-c1ccccc1")
"inactive"
>>> experimental_result("C[N+]1(CCCCC[N+]2(C)CCCC2)CCCC1")
"inactive"
>>> experimental_result("C1CCc2nnnn2CC1")
"inactive"
>>> experimental_result("O=C(O)c1cc2cc(Cc3cccnc3)ccc2o1")
"inactive"
>>> experimental_result("CN1CCN(CCCN2c3ccccc3Sc3ccc(S(=O)(=O)N(C)C)cc32)CC1")
"inactive"
>>> experimental_result("Cc1c(F)c(N2CCNC(C)C2)cc2c1c(=O)c(C(=O)O)cn2C1CC1 (configuration not stated)")
"inactive"
>>> experimental_result("O=C(O)CNC(=O)c1ccccc1")
"inactive"
>>> experimental_result("CCCCC(CC)CN=C(N)NC(N)=NCCCCCCN=C(N)NC(N)=NCC(CC)CCCC (configuration not stated)")
"1070 nM (active)"
>>> experimental_result("C[C@@H](CN(C)C)CN1c2ccccc2Sc2ccccc21")
"inactive"
>>> experimental_result("CCOC(=O)COc1ccc2c(C)c(CCN(CC)CC)c(=O)oc2c1Cl")
"inactive"
>>> experimental_result("NC(=NCCCCCCN=C(N)/N=C(\\N)Nc1ccc(Cl)cc1)/N=C(\\N)Nc1ccc(Cl)cc1")
"1510 nM (active)"
>>> experimental_result("COc1cc(C(=S)N2CCOCC2)cc(OC)c1OC")
"inactive"

====

- Method Notes: qHTS of pediatric cancer cell lines to identify multiple opportunities for drug repurposing: Primary screen for Rh18 cells (AID 1347102); further: nearly all actives have a fitted effect of over 65% in size
- Experimental Conditions: Rh18 rhabdomyosarcoma viability, CellTiter-Glo luminescence, 48 h; series mostly up to 46 µM
Records with an inconclusive call do not appear. The source made the active and inactive calls. Calls follow the shape of the dose curve; as a rule, active = well fitted cell-killing curve with a large enough effect; inconclusive = small, poorly fitted or top-dose-only effect; inactive = flat fitted curve, though single readings scatter.
Outcomes: 1 (active), 0 (inactive)

>>> cat("O=C(O)CCCCC(=O)O")
0
>>> cat("CCCCCCC[N+](CC)(CC)CCCCc1ccc(Cl)cc1")
1
>>> cat("CN=C(NC#N)NCCSCc1csc(N=C(N)N)n1")
0
>>> cat("Cc1ncc(CSSCc2cnc(C)c(O)c2CO)c(CO)c1O")
0
>>> cat("CCCCCCCCCCOCC(O)CN (stereo unspecified)")
1
>>> cat("OC[C@H]1O[C@H](O[C@]2(CCl)O[C@H](CCl)[C@@H](O)[C@@H]2O)[C@H](O)[C@@H](O)[C@H]1Cl")
0
>>> cat("CC(=O)OCC(=O)[C@@]1(OC(C)=O)[C@@H](C)C[C@H]2[C@@H]3C[C@H](F)C4=CC(=O)C=C[C@]4(C)[C@@]3(F)[C@@H](O)C[C@@]21C")
0
>>> cat("CN=C(NC#N)Nc1ccc(C2=NNC(=O)CC2C)cc1 (stereo unspecified)")
0
>>> cat("CCCCCC=CCC=CCCCCCCCC(=O)OCC")
0
>>> cat("CCOc1ccc(NC(=O)CC(C)O)cc1 (stereo unspecified)")
0
>>> cat("CCN(CC)CCNC(=O)COc1ccc(Cl)cc1")
0

====

- Tested on: MCC-13
- Method Notes: qHTS assay to identify novel small-molecules to repurpose for Merkel cell carcinoma treatment (AID 1296009); further: nearly all actives have a fitted effect of over 60% in size
- Experimental Conditions: MCC and control cell lines, CellTiter-Glo viability, 72 h; series mostly up to 46 µM
Inconclusive results are not listed. Calls of active or inactive are those of the source. The call rests on the fitted dose curve; in most records, active means well fitted inhibition curve with a large enough effect; inconclusive means small, poorly fitted or top-dose-only effect; inactive means flat fitted curve, though single readings scatter.
Outcomes: active, inactive

>>> cat("CC(=O)Nc1c(I)cc(I)c(C(=O)O)c1I")
"inactive"
>>> cat("C[C@]12CCC(=O)C=C1CC[C@H]1[C@@H]3CC[C@](O)(C(=O)CO)[C@@]3(C)C[C@H](O)[C@@]12F")
"inactive"
>>> cat("Cc1ccccc1C(=O)Nc1ccc(C(=O)N2CCCC(N(C)C)c3ccccc32)cc1 (stereo not drawn)")
"inactive"
>>> cat("C[C@]12CC[C@H]3[C@@H](CCC4=CC(=O)CC[C@@]43C)[C@@H]1CC[C@@H]2C(=O)CO")
"inactive"
>>> cat("O=C(COc1ccc(Cl)cc1)N1CCN(Cc2ccc3c(c2)OCO3)CC1")
"inactive"
>>> cat("Clc1ccc2c(c1)CCc1cccnc1C2=C1CCNCC1")
"inactive"
>>> cat("CCCCN1CCCC1C(=O)Nc1c(C)cc(C)cc1C (stereo not drawn)")
"inactive"
>>> cat("CC1(C)O[C@@H]2C[C@H]3[C@@H]4C[C@H](F)C5=CC(=O)CC[C@]5(C)[C@H]4[C@@H](O)C[C@]3(C)[C@]2(C(=O)CO)O1")
"inactive"
>>> cat("Cc1ccc(C(=O)C(C)CN2CCCCC2)cc1 (stereo not drawn)")
"inactive"
>>> cat("COc1cccc2c1C(=O)c1c(O)c3c(c(O)c1C2=O)C[C@@](O)(C(=O)CO)C[C@@H]3O[C@H]1C[C@H](N)[C@H](O)[C@H](C)O1")
"active"
>>> cat("C[C@@H](CN(C)C)CN1c2ccccc2Sc2ccccc21")
"inactive"
>>> cat("NC(=O)c1cc[n+](CC2=C(C(=O)[O-])N3C(=O)[C@@H](NC(=O)Cc4cccs4)[C@H]3SC2)cc1")
"inactive"
>>> cat("Oc1ccc(O)cc1")
"inactive"
>>> cat("NC(=NCCCCCCN=C(N)/N=C(\\N)Nc1ccc(Cl)cc1)/N=C(\\N)Nc1ccc(Cl)cc1")
"active"
>>> cat("OC[C@H]1O[C@H](O[C@]2(CCl)O[C@H](CCl)[C@@H](O)[C@@H]2O)[C@H](O)[C@@H](O)[C@H]1Cl")
"inactive"
>>> cat("C[C@@H]1C[C@H]2[C@@H]3C[C@H](F)C4=CC(=O)C(Cl)=C[C@]4(C)[C@@]3(F)[C@@H](O)C[C@]2(C)[C@@]1(O)C(=O)CO")
"inactive"
>>> cat("CC(=O)OCC(=O)[C@@]1(OC(C)=O)[C@@H](C)C[C@H]2[C@@H]3C[C@H](F)C4=CC(=O)C=C[C@]4(C)[C@@]3(F)[C@@H](O)C[C@@]21C")
"inactive"
>>> cat("C[n+]1c2cc(N)ccc2cc2ccc(N)cc21 (tested in a mixture with another compound)")
"active"
>>> cat("O=S1(=O)c2cccc3cccc(c23)N1CCCN1CCN(c2ccc(F)cc2)CC1")
"inactive"
>>> cat("CN(C)CCCOc1nn(Cc2ccccc2)c2ccccc12")
"inactive"
>>> cat("NCCc1ccn[nH]1")
"inactive"
>>> cat("CC(C)(Oc1ccc(Cl)cc1)C(=O)O")
"inactive"
>>> cat("COCc1c(C(C)C)nc(C(C)C)c(/C=C/[C@@H](O)C[C@@H](O)CC(=O)O)c1-c1ccc(F)cc1")
"active"
>>> cat("CCOC(=O)OC(C)OC1=C(C(=O)Nc2ccccn2)N(C)S(=O)(=O)c2ccccc21 (stereo not drawn)")
"inactive"
>>> cat("C[C@H]1[C@H](NC(=O)/C(=N/OC(C)(C)C(=O)O)c2csc(N)n2)C(=O)N1S(=O)(=O)O (stereo in doubt)")
"inactive"
>>> cat("CCN1CCC[C@H]1CNC(=O)c1c(OC)ccc(Br)c1OC")
"inactive"
>>> cat("Cc1cc2c(cc1CC(=O)c1sccc1S(=O)(=O)Nc1onc(C)c1Cl)OCO2")
"inactive"
>>> cat("CCN(CCCCOC(=O)c1ccc(OC)c(OC)c1)C(C)Cc1ccc(OC)cc1 (stereo not drawn)")
"inactive"
>>> cat("COC(=O)[C@@H]1CC2=CC(=O)CC[C@]2(C)[C@@]23O[C@@H]2C[C@@]2(C)[C@@H](CC[C@@]24CCC(=O)O4)[C@H]13")
"inactive"
>>> cat("COc1cccc2c1C(=O)c1c(O)c3c(c(O)c1C2=O)C[C@@](O)(C(C)=O)C[C@@H]3O[C@H]1C[C@H](N)[C@H](O)[C@H](C)O1")
"active"
>>> cat("CC[C@@H](CO)NCCN[C@@H](CC)CO")
"inactive"
>>> cat("O=C(Nc1ccc(Cl)c(Cl)c1)C1CC1")
"inactive"
>>> cat("Cc1ncc(CSSCc2cnc(C)c(O)c2CO)c(CO)c1O")
"inactive"
>>> cat("CC(C)=CCC1C(=O)N(c2ccccc2)N(c2ccccc2)C1=O")
"inactive"
>>> cat("CC1(C)OC[C@@H](COC(=O)CCc2ccc(OC[C@@H](O)CNCCNC(=O)N3CCOCC3)cc2)O1")
"inactive"
>>> cat("C[C@H]1C[C@H]2[C@@H]3CCC4=CC(=O)C=C[C@]4(C)[C@@]3(Cl)[C@@H](O)C[C@]2(C)[C@@]1(O)C(=O)CO")
"inactive"
>>> cat("CCOC(=O)n1ccn(C)c1=S")
"inactive"
>>> cat("Cc1cc(N)c2cc(NC(=O)Nc3ccc4nc(C)cc(N)c4c3)ccc2n1")
"inactive"
